- targetSystem: T1, BAK (UniProt:Q16611, residues 16–185, C166S) (human, UniProt Q16611 16-185, C166S)
- T1 sequence: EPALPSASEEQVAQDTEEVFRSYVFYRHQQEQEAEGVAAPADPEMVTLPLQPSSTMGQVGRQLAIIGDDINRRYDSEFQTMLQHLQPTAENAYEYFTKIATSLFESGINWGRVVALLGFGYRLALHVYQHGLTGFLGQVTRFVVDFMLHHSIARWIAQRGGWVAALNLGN
- test: without detergent
pKd: −log10 of the molar value. No end group written: not given here. *: point of attachment. TAMRA = 5-carboxytetramethylrhodamine, CN(C)c1ccc2c(-c3ccc(C(=O)*)cc3C(=O)[O-])c3ccc(=[N+](C)C)cc-3oc2c1
reportedProperty: pKd

>>> assayvalue("{TAMRA}-SESQEDIIRNIARHLAQVGDSMDRSIPPGLVNGLA [BIDBH3, TAMRA-labelled 35-residue peptide (UniProt:P55957, residues 76–110)]")
3.64

(I) {TAMRA}-RGEEEQWAREIGAQLRRAADDLNAQYERRRQEEQQ [PUMABH3, TAMRA-labelled 35-residue peptide (UniProt: Q9BXH1, residues 127–161, M144A)]
(II) {TAMRA}-ALQPSSTMGQVGRQLAIIGDDINRRYDSEFQTMLQ [BAKBH3, TAMRA-labelled 35-residue peptide (UniProt:Q16611, residues 64–98, P64A)]
Query block: So which one has the bigger pKd here, I or II ? API: response body contains the label of the selected item.
Result block: I
